Target: T1, GPR39 (G protein-coupled receptor 39) (Homo sapiens (Human), UniProt O43194 1-453)
T1 sequence: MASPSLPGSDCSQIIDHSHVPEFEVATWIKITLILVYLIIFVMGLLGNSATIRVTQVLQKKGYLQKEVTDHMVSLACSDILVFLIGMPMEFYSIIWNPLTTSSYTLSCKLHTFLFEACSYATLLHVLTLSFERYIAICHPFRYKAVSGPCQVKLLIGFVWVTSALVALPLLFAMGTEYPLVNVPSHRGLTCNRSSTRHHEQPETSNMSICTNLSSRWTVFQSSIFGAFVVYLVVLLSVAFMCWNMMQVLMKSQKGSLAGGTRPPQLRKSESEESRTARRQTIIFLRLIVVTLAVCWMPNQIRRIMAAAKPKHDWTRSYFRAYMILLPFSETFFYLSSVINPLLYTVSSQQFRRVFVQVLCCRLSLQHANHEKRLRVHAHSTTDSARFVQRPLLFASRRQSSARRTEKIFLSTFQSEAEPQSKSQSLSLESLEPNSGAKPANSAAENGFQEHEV
Test: cell-based or functional assay
Square brackets hold non-standard residues; d marks the D form. Ends that are not written are not given here. * marks the point of attachment. dPhe(4-Me) = Cc1ccc(C[C@@H](N)C(=O)O)cc1; Trt = c1ccc(C(c2ccccc2)(c2ccccc2)*)cc1; Benzhydryl = c1ccc(C(c2ccccc2)*)cc1; Palmitoyl = CCCCCCCCCCCCCCCC(=O)*; Octanoyl = CCCCCCCC(=O)*; Bn = c1ccc(C*)cc1
OBSERVATION_TYPE: ECmax (-fold induction over basal)

For every listed record, write down its ECmax (-fold induction over basal).
1. H(Trt)K(Octanoyl)[dF]Y [HKFY-12]
2. H(Trt)K(Palmitoyl)FY [HKFY-27]

Response:
["20.7 -fold induction over basal", "20.4 -fold induction over basal"]

For every listed record, write down its ECmax (-fold induction over basal).
1. H(4‑methylbenzhydryl)K(Octanoyl)FY [HKFY-22]
2. H(Bn)K(Octanoyl)FY [HKFY-3]
3. H(Trt)GSK(Octanoyl)FY [HKFY-53]
4. H(Benzhydryl)K(Octanoyl)[dPhe(4-Me)][Tyr(3-nitro)] [HKFY-68]

Response:
["21.3 -fold induction over basal", "9.2 -fold induction over basal", "8 -fold induction over basal", "10.8 -fold induction over basal"]

Request: Note down ECmax (-fold induction over basal) recorded for H(Trt)K(Octanoyl)FW [HKFY-46]
Response: 20 -fold induction over basal
